What viability, T/C was measured for each of the following?
- Tested on: 695427-040-R-J1-PDC complex spheroid viability
- Test summary: Anticancer human tumor 695427-040-R-J1-PDC patient-derived colon adenocarcinoma cell line growth inhibition [POLQ]
- Conditions used: second compound 0.0316 µM; first compound 10 µM; stronger effect = lower value
Kindly provide the numeric value in % only, without the unit symbol.

I have this compound here, COc1ccc([C@@H](O)c2cc(-c3ncnc4cc(N5CCOCC5)ccc34)c(F)cc2Cl)nn1 + Nc1ccc(C#CCN(C(=O)Cc2ncc(C(F)(F)F)cc2C(F)(F)F)c2ccc(F)cc2)nn1 , and I need its recorded viability, T/C. 60.7

And what about the compound CNCc1ccc(-c2[nH]c3cc(F)cc4c3c2CCNC4=O)cc1 + Nc1ccc(C#CCN(C(=O)Cc2ncc(C(F)(F)F)cc2C(F)(F)F)c2ccc(F)cc2)nn1 ? 107

Another compound to look at: CC1COCCN1c1cc(C2(S(C)(=N)=O)CC2)nc(-c2ccnc3[nH]ccc23)n1 (stereo not given) + Cc1cccc(N(C)C(=O)C2C(O)CCN2c2nc(C)cc(C(F)(F)F)c2C#N)c1 82.5

Could you do the same for C#Cc1c(F)ccc2cc(O)cc(-c3ncc4c(N5CC6CCC(C5)N6)nc(OCC56CCCN5CC(F)C6)nc4c3F)c12 (stereo not given) + Cc1cccc(N(C)C(=O)C2C(O)CCN2c2nc(C)cc(C(F)(F)F)c2C#N)c1 , please? 86.9

And for CCc1cc2c(N3CCc4c(cc(Cn5ccnc5)cc4-c4cn(C)nc4C(F)(F)F)C3=O)cc(C)nc2c(OC)n1 + Cc1cccc(N(C)C(=O)C2C(O)CCN2c2nc(C)cc(C(F)(F)F)c2C#N)c1 ? 98.3

* * *

Hi there, I'd appreciate the recorded viability, T/C for every entry that follows.
- Test system: 695427-040-R-J1-PDC complex spheroid viability
- Test summary: Anticancer human tumor 695427-040-R-J1-PDC cell line growth inhibition [POLQ];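 note: spheroids exposed to compounds for seven days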;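 for viability, T/C: 100% = DMSO vehicle control viability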
- Conditions used: second compound 3.16 µM; first compound 0.0316 µM; stronger effect = lower value
Form entry: value (%) — number only.

Notebook entry, 695427-040-R-J1-PDC complex spheroid viability assay: viability, T/C of O=C(Nc1ccc(O)c(NS(=O)(=O)c2ccc(F)cc2)c1)c1ccc(-c2ccccc2)cc1 + Nc1ccc(C#CCN(C(=O)Cc2ncc(C(F)(F)F)cc2C(F)(F)F)c2ccc(F)cc2)nn1 = ? 108

What would you report for CCCS(=O)(=O)Nc1ccc(F)c(C(=O)c2c[nH]c3ncc(-c4ccc(Cl)cc4)cc23)c1F + Nc1ccc(C#CCN(C(=O)Cc2ncc(C(F)(F)F)cc2C(F)(F)F)c2ccc(F)cc2)nn1 ? 109

Another compound: CCc1cc2c(N3CCc4c(cc(Cn5ccnc5)cc4-c4cn(C)nc4C(F)(F)F)C3=O)cc(C)nc2c(OC)n1 + Cc1cccc(N(C)C(=O)C2C(O)CCN2c2nc(C)cc(C(F)(F)F)c2C#N)c1 99.8

Now the compound C=CC(=O)N1CCN(c2nc(=O)n(-c3c(C)ccnc3C(C)C)c3nc(-c4c(O)cccc4F)c(F)cc23)C(C)C1 (stereo unspecified) + COC1C(OC(N)=O)C(O)C(Oc2ccc3c(O)c(NC(=O)c4ccc(O)c(CC=C(C)C)c4)c(=O)oc3c2C)OC1(C)C 103

Now give it for Cn1ncnc1[C@H]1c2n[nH]c(=O)c3cc(F)cc(c23)N[C@@H]1c1ccc(F)cc1 + COC1C(OC(N)=O)C(O)C(Oc2ccc3c(O)c(NC(=O)c4ccc(O)c(CC=C(C)C)c4)c(=O)oc3c2C)OC1(C)C too. 105

Repeat with C=CC(=O)N1CCN(c2nc(=O)n(-c3c(C)ccnc3C(C)C)c3nc(-c4c(O)cccc4F)c(F)cc23)C(C)C1 (stereo unspecified) + Cc1cccc(N(C)C(=O)C2C(O)CCN2c2nc(C)cc(C(F)(F)F)c2C#N)c1 97.8

Also check O=C(c1cc(Cc2n[nH]c(=O)c3ccccc23)ccc1F)N1CCN(C(=O)C2CC2)CC1 + COC1C(OC(N)=O)C(O)C(Oc2ccc3c(O)c(NC(=O)c4ccc(O)c(CC=C(C)C)c4)c(=O)oc3c2C)OC1(C)C 97.1

Another: Nc1ccn(C2OC(CO)C(O)C2(F)F)c(=O)n1 (stereo unspecified) + COC1C(OC(N)=O)C(O)C(Oc2ccc3c(O)c(NC(=O)c4ccc(O)c(CC=C(C)C)c4)c(=O)oc3c2C)OC1(C)C 89.2

Follow-up item: COc1cccc(OCCCN)c1-c1cc(Nc2cnc(C#N)cn2)n[nH]1 + Cc1cccc(N(C)C(=O)C2C(O)CCN2c2nc(C)cc(C(F)(F)F)c2C#N)c1 86.5

Item: COc1cc2cc(C(=O)CCC(=O)O)sc2cc1OC + Cc1cccc(N(C)C(=O)C2C(O)CCN2c2nc(C)cc(C(F)(F)F)c2C#N)c1 96.7

Moving on to CNCc1ccc(-c2[nH]c3cc(F)cc4c3c2CCNC4=O)cc1 + Nc1ccc(C#CCN(C(=O)Cc2ncc(C(F)(F)F)cc2C(F)(F)F)c2ccc(F)cc2)nn1 103

* * *

- System: 695427-040-R-J1-PDC complex spheroid viability
- Test summary: Anticancer human tumor 695427-040-R-J1-PDC cell line growth inhibition [POLQ];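 note: spheroids exposed to compounds for seven days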
- Conditions used: curve of first compound; second compound 0.0316 µM
Reported property: IC50

So what's the measured IC50 for this one? CCCS(=O)(=O)Nc1ccc(F)c(C(=O)c2c[nH]c3ncc(-c4ccc(Cl)cc4)cc23)c1F + Cc1cccc(N(C)C(=O)C2C(O)CCN2c2nc(C)cc(C(F)(F)F)c2C#N)c1 > 10 µM

Another: Cn1ncnc1[C@H]1c2n[nH]c(=O)c3cc(F)cc(c23)N[C@@H]1c1ccc(F)cc1 + Nc1ccc(C#CCN(C(=O)Cc2ncc(C(F)(F)F)cc2C(F)(F)F)c2ccc(F)cc2)nn1 > 0.1 µM

And the next one, O=C(c1cc(Cc2n[nH]c(=O)c3ccccc23)ccc1F)N1CCN(C(=O)C2CC2)CC1 + Cc1cccc(N(C)C(=O)C2C(O)CCN2c2nc(C)cc(C(F)(F)F)c2C#N)c1 ? > 10 µM

* * *

- Test system: 695427-040-R-J1-PDC complex spheroid viability
- Test summary: Anticancer human tumor 695427-040-R-J1-PDC cell line growth inhibition [POLQ];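 note: spheroids exposed to compounds for seven days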;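 for viability, T/C: 100% = DMSO vehicle control viability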
- Conditions used: second compound 10 µM; first compound 0.0316 µM; stronger effect = lower value
Please provide measured viability, T/C for the entries that follow.
The figure you give is taken to be in %; do not add the unit.

Please look up its viability, T/C: O=c1[nH]cc(F)c(=O)[nH]1 + Nc1ccc(C#CCN(C(=O)Cc2ncc(C(F)(F)F)cc2C(F)(F)F)c2ccc(F)cc2)nn1 110

Now try CCc1c2c(nc3ccc(O)cc13)-c1cc3c(c(=O)n1C2)COC(=O)[C@]3(O)CC + COC1C(OC(N)=O)C(O)C(Oc2ccc3c(O)c(NC(=O)c4ccc(O)c(CC=C(C)C)c4)c(=O)oc3c2C)OC1(C)C . 85.7

Try this molecule too: COc1ccc([C@@H](O)c2cc(-c3ncnc4cc(N5CCOCC5)ccc34)c(F)cc2Cl)nn1 + Nc1ccc(C#CCN(C(=O)Cc2ncc(C(F)(F)F)cc2C(F)(F)F)c2ccc(F)cc2)nn1 101

Check COc1ccc([C@@H](O)c2cc(-c3ncnc4cc(N5CCOCC5)ccc34)c(F)cc2Cl)nn1 + COC1C(OC(N)=O)C(O)C(Oc2ccc3c(O)c(NC(=O)c4ccc(O)c(CC=C(C)C)c4)c(=O)oc3c2C)OC1(C)C too. 101

Continue with CC1COCCN1c1cc(-c2ccnn2C)c2ccnc(-c3ccn[nH]3)c2n1 (stereo not given) + COC1C(OC(N)=O)C(O)C(Oc2ccc3c(O)c(NC(=O)c4ccc(O)c(CC=C(C)C)c4)c(=O)oc3c2C)OC1(C)C 90.8

And what about the molecule CCCS(=O)(=O)Nc1ccc(F)c(C(=O)c2c[nH]c3ncc(-c4ccc(Cl)cc4)cc23)c1F + Nc1ccc(C#CCN(C(=O)Cc2ncc(C(F)(F)F)cc2C(F)(F)F)c2ccc(F)cc2)nn1 ? 95.1

Cool, now COc1ccc([C@@H](O)c2cc(-c3ncnc4cc(N5CCOCC5)ccc34)c(F)cc2Cl)nn1 + Cc1cccc(N(C)C(=O)C2C(O)CCN2c2nc(C)cc(C(F)(F)F)c2C#N)c1 97.2

And the next one, C#Cc1c(F)ccc2cc(O)cc(-c3ncc4c(N5CC6CCC(C5)N6)nc(OCC56CCCN5CC(F)C6)nc4c3F)c12 (stereo not given) + COC1C(OC(N)=O)C(O)C(Oc2ccc3c(O)c(NC(=O)c4ccc(O)c(CC=C(C)C)c4)c(=O)oc3c2C)OC1(C)C ? 107

Follow-up entry: COc1cccc2c1C(=O)c1c(O)c3c(c(O)c1C2=O)CC(O)(C(=O)CO)CC3OC1CC(N)C(O)C(C)O1 (stereo not given) + Cc1cccc(N(C)C(=O)C2C(O)CCN2c2nc(C)cc(C(F)(F)F)c2C#N)c1 81.6

Another molecule: O=C(c1cc(Cc2n[nH]c(=O)c3ccccc23)ccc1F)N1CCN(C(=O)C2CC2)CC1 + Cc1cccc(N(C)C(=O)C2C(O)CCN2c2nc(C)cc(C(F)(F)F)c2C#N)c1 89.4
